The values you see were collected from ChEMBL document CHEMBL3045228.

- TEST_METHOD_NOTES: Inhibition of Acyl-coenzyme A:cholesterol acyltransferase (unknown origin) assessed as intracellular cholesterol esterification by cell based assay
- CONDITION_LABEL: Homo sapiens; read-out: IC50
pIC50: −log10 of the molar value.
METRIC: pIC50

// worked examples, pIC50 included
COMPOUND | pIC50
CCCCCC(C)N(Cc1ccc(C(C)(C)C)cc1)C(Nc1ccc(N(C)C)cc1)=C1C(=O)OC(C)(C)OC1=O (configuration not stated) | 6.60
CCCCCC(C)N(Cc1ccc(CC(C)(C)C)cc1)C(Nc1ccc(C)cc1C)=C1C(=O)OC(C)(C)OC1=O (configuration not stated) | 6.31
COc1ccc(NC(NCCc2ccccc2)=C2C(=O)OC(C)(C)OC2=O)c(OC)c1 | 5.55
COc1cc(NC(NCCCCCCCCc2ccc(OCCC(C)C)cc2)=C2C(=O)OC(C)(C)OC2=O)cc(OC)c1OC | 5.46

A = COc1ccc(NC(NCCCCCCCCc2ccc(OCCC(C)C)cc2)=C2C(=O)OC(C)(C)OC2=O)c(OC)c1
B = CCCCCc1ccc(CCCCCCCCNC(Nc2ccc(OC)cc2OC)=C2C(=O)OC(C)(C)OC2=O)cc1
C = CC(C)Cc1ccc(CN(C(Nc2ccc(N(C)C)cc2)=C2C(=O)OC(C)(C)OC2=O)C(C)CCCC(C)(C)O)cc1 (configuration not stated)
D = CC(C)CCOc1ccc(CCCCCCCCNC(Nc2ccc(N(C)C)cc2)=C2C(=O)OC(C)(C)OC2=O)cc1
E = CCCCC(CC)N(Cc1ccc(CC(C)(C)C)cc1)C(Nc1ccc(N(C)C)cc1)=C1C(=O)OC(C)(C)OC1=O (configuration not stated)
Sort entries by pIC50 from minimum to maximum value. API: response body holds the labels in the requested order.
C, A, B, D, E
(C: 5.28, A: 5.82, B: 6.08, D: 6.43, E: 6.72)

====

- TEST_METHOD_NOTES: Inhibition of Acyl-coenzyme A:cholesterol acyltransferase (unknown origin) assessed as intracellular cholesterol esterification by cell based assay
- CONDITION_LABEL: Homo sapiens; read-out: pIC50 (converted)
METRIC: IC50 (nM)

a = COc1ccc(NC(NCCCCCCCCc2ccc(OCCC(C)C)cc2)=C2C(=O)OC(C)(C)OC2=O)c(OC)c1
b = COc1ccc(NC(=C2C(=O)OC(C)(C)OC2=O)N(Cc2ccc(CC(C)C)cc2C)C(CO[SiH](C)C)CC(C)C)c(OC)c1 (stereo unspecified)
# returns the entry with the larger IC50; inputs a and b State the label of the item chosen.
a
(a: 1500 nM, b: 530 nM)

I = COc1ccc(NC(NCCc2ccccc2)=C2C(=O)OC(C)(C)OC2=O)c(OC)c1
II = CC(C)Cc1ccc(CN(C(Nc2ccc(N(C)C)cc2)=C2C(=O)OC(C)(C)OC2=O)C(C)CCCC(C)(C)O)cc1 (stereo unspecified)
III = CCCCCCOc1ccc(NC(=C2C(=O)OC(C)(C)OC2=O)N(Cc2ccc(CC(C)C)cc2)C(C)CCCCC)cc1 (stereo unspecified)
IV = CCCCCC(C)N(Cc1ccc(C(C)(C)C)cc1)C(Nc1cc(OC)c(OC)c(OC)c1)=C1C(=O)OC(C)(C)OC1=O (stereo unspecified)
V = CCCCCC(C)N(Cc1ccc(OCC(C)C)cc1)C(Nc1ccc(N(C)C)cc1)=C1C(=O)OC(C)(C)OC1=O (stereo unspecified)
Arrange these compounds by their IC50, starting with the largest number. Put the labels in the order asked and list them.
II, I, IV, III, V

====

- TEST_METHOD_NOTES: Inhibition of Acyl-coenzyme A:cholesterol acyltransferase (unknown origin) assessed as intracellular cholesterol esterification by cell based assay
- CONDITION_LABEL: Homo sapiens; read-out: pIC50 (converted)
METRIC: IC50 (nM)

1 = CCCCCC(C)N(Cc1ccc(OCCC(C)C)cc1)C(Nc1ccc(N(C)C)cc1)=C1C(=O)OC(C)(C)OC1=O (centres undefined)
2 = COc1ccc(NC(=C2C(=O)OC(C)(C)OC2=O)N(Cc2ccc(CC(C)C)cc2)C(C)CCCC(C)C)c(OC)c1 (centres undefined)
3 = CC1(C)OC(=O)C(=C(NCCCCCCCCc2ccc(C(C)(C)C)cc2)Nc2ccc(Oc3ccccc3)cc2)C(=O)O1
4 = COc1ccc(NC(NCCCCCCCCCCCc2ccc(C(C)(C)C)cc2)=C2C(=O)OC(C)(C)OC2=O)c(OC)c1
Order by IC50, ascending. Give your ranking as a list of the labels in the requested order.
1, 2, 3, 4

====

- TEST_METHOD_NOTES: Inhibition of Acyl-coenzyme A:cholesterol acyltransferase (unknown origin) assessed as intracellular cholesterol esterification by cell based assay
- CONDITION_LABEL: Homo sapiens; read-out: IC50
pIC50: −log10 of the molar value.
METRIC: pIC50

COMPOUND | OBSERVED
CC1(C)OC(=O)C(=C(NCCCCCCCCc2ccc(C(C)(C)C)cc2)Nc2ccc(Oc3ccccc3)cc2)C(=O)O1 | 6.04

P = CCCCCC(C)N(Cc1ccc(C(C)(C)C)cc1)C(Nc1cc(OC)c(OC)c(OC)c1)=C1C(=O)OC(C)(C)OC1=O (centres undefined)
Q = CCCCCC(C)N(Cc1ccc(CCC(C)C)cc1)C(Nc1ccc(N(C)C)cc1C)=C1C(=O)OC(C)(C)OC1=O (centres undefined)
R = COc1ccc(NC(NCCCCCCCCCCCc2ccc(C(C)(C)C)cc2)=C2C(=O)OC(C)(C)OC2=O)c(OC)c1
Sequence the entries by pIC50, beginning with the highest number. Rank the items, then write their labels in that order.
Q, P, R

====

- TEST_METHOD_NOTES: Inhibition of Acyl-coenzyme A:cholesterol acyltransferase (unknown origin) assessed as intracellular cholesterol esterification by cell based assay
- CONDITION_LABEL: Homo sapiens; read-out: pIC50 (converted)
METRIC: IC50 (µM)

MOLECULE | METRIC | SCALE_UNIT | OBSERVED
Cc1cc(N(C)C)cc(C)c1NC(NCCCCCCCCc1ccc(C(C)(C)C)cc1)=C1C(=O)OC(C)(C)OC1=O | IC50 | µM | 0.979

a = CCCCCC(C)N(Cc1ccc(CC(C)C)cc1)C(Nc1ccc(OC)cc1OC)=C1C(=O)OC(C)(C)OC1=O (stereo not drawn)
b = CCCCCc1ccc(CN(C(Nc2ccc(OC)cc2OC)=C2C(=O)OC(C)(C)OC2=O)C(C)CCCCC)cc1 (stereo not drawn)
Please indicate which entry, a or b , has the lower recorded IC50 value. Provide the label of your selected option as the answer.
a

====

- TEST_METHOD_NOTES: Inhibition of Acyl-coenzyme A:cholesterol acyltransferase (unknown origin) assessed as intracellular cholesterol esterification by cell based assay
- CONDITION_LABEL: Homo sapiens; read-out: IC50
pIC50: −log10 of the molar value.
METRIC: pIC50

Known results for compounds:
COMPOUND | pIC50
CC(C)CCCC(C)N(Cc1ccc(CC(C)C)cc1)C(Nc1ccc(N(C)C)cc1)=C1C(=O)OC(C)(C)OC1=O (stereo not given) | 6.57
CCCCCC(C)N(Cc1ccc(CC(C)(C)C)cc1)C(Nc1c(C)cc(N(C)C)cc1C)=C1C(=O)OC(C)(C)OC1=O (stereo not given) | 6.42
CCCCCC(C)N(Cc1ccc(C(C)(C)C)cc1)C(Nc1ccc(OCCCC)cc1)=C1C(=O)OC(C)(C)OC1=O (stereo not given) | 6.64
CCCCCC(C)N(Cc1ccc(CC(C)(C)C)cc1)C(Nc1ccc(N(C)C)cc1C)=C1C(=O)OC(C)(C)OC1=O (stereo not given) | 6.59
CCCCCCC(CCCCCC)N(Cc1ccc(CC(C)C)cc1)C(Nc1ccc(N(C)C)cc1)=C1C(=O)OC(C)(C)OC1=O | 7.36

P = CCCCCC(C)N(Cc1ccc(CC(C)C)cc1)C(Nc1ccc(N(C)C)cc1C)=C1C(=O)OC(C)(C)OC1=O (stereo not given)
Q = CCCCCC(C)N(Cc1ccc(OCC(C)C)cc1)C(Nc1ccc(OC)cc1OC)=C1C(=O)OC(C)(C)OC1=O (stereo not given)
When P and Q are compared, which has the higher number for pIC50? Identify your pick by its label.
P
(P: 6.46, Q: 6.26)

A = COc1ccc(NC(NCCCCCCCCc2ccc(CC(C)C)cc2)=C2C(=O)OC(C)(C)OC2=O)c(OC)c1
B = CCCCCC(C)N(Cc1ccc(OC(C)CCC)cc1)C(Nc1ccc(OC)cc1OC)=C1C(=O)OC(C)(C)OC1=O (stereo not given)
Compare pIC50: is it lower for A or for B ? State your choice using its label.
A

====

- TEST_METHOD_NOTES: Inhibition of Acyl-coenzyme A:cholesterol acyltransferase (unknown origin) assessed as intracellular cholesterol esterification by cell based assay
- CONDITION_LABEL: Homo sapiens; read-out: pIC50 (converted)
METRIC: IC50 (nM)

Previously resolved entries follow.
MOLECULE | IC50, nM
COc1ccc(NC(NCc2ccc(C(C)(C)C)cc2)=C2C(=O)OC(C)(C)OC2=O)c(OC)c1 | 260
CCCCCC(C)N(Cc1ccc(OCC(C)C)cc1)C(Nc1ccc(OC)cc1OC)=C1C(=O)OC(C)(C)OC1=O (stereo unspecified) | 550
CCCCCC(C)N(Cc1ccc(CC(C)C)cc1)C(Nc1ccc(N(C)C)cc1C)=C1C(=O)OC(C)(C)OC1=O (stereo unspecified) | 350
CCCCCC(C)N(Cc1ccc(CC(C)(C)C)cc1)C(Nc1ccc(N(C)C)cc1C)=C1C(=O)OC(C)(C)OC1=O (stereo unspecified) | 260
COc1ccc(NC(=C2C(=O)OC(C)(C)OC2=O)N(Cc2ccc(CCC(C)C)cc2)C(CC(C)C)CC(C)C)c(OC)c1 | 1300

P = CN(C)c1ccc(NC(NCCCCCCCCc2ccc(C(C)(C)C)cc2)=C2C(=O)OC(C)(C)OC2=O)cc1
Q = CCCCCC(C)N(Cc1ccc(C(C)(C)C)cc1)C(Nc1ccc(N(C)C)cc1)=C1C(=O)OC(C)(C)OC1=O (stereo unspecified)
Between item P and item Q , which reported IC50 is smaller? # respond with the chosen item's label
Q

P = CCCCCC(C)N(Cc1ccc(CC(C)(C)C)cc1)C(Nc1ccc(OC)cc1OC)=C1C(=O)OC(C)(C)OC1=O (stereo unspecified)
Q = COc1cc(NC(NCCCCCCCCc2ccc(C(C)(C)C)cc2)=C2C(=O)OC(C)(C)OC2=O)cc(OC)c1OC
Lab note: check whether P or Q shows the higher recorded IC50. Provide the label of your selected option as the answer.
Q

A = CCCCC(CC)N(Cc1ccc(CC(C)(C)C)cc1)C(Nc1ccc(OC)cc1OC)=C1C(=O)OC(C)(C)OC1=O (stereo unspecified)
B = CCCCCc1ccc(CCCCCCCCNC(Nc2ccc(OC)cc2OC)=C2C(=O)OC(C)(C)OC2=O)cc1
C = COc1ccc(NC(NCCCCCCCCc2ccc(CCC(C)C)cc2)=C2C(=O)OC(C)(C)OC2=O)c(OC)c1
Order the records so the highest IC50 appears first and the lowest last. Please list the labels in the order you were asked to rank them.
C, B, A
(C: 3000 nM, B: 839 nM, A: 540 nM)

a = CCCCCC(C)N(Cc1ccc(CC(C)(C)C)cc1)C(Nc1ccc(C)cc1C)=C1C(=O)OC(C)(C)OC1=O (stereo unspecified)
b = CCCCCC(C)N(Cc1ccc(C(C)(C)C)cc1)C(Nc1ccc(OCCCC)cc1)=C1C(=O)OC(C)(C)OC1=O (stereo unspecified)
Hi, I'm comparing two records. Which one has the lower IC50, a or b ? Which one? Tell me its label.
b

1 = CCCCCC(C)N(Cc1ccc(OC(C)CCC)cc1)C(Nc1ccc(OC)cc1OC)=C1C(=O)OC(C)(C)OC1=O (stereo unspecified)
2 = CC(C)(C)Cc1ccc(CCCCCCCNC(Nc2cc(C(C)(C)C)c(O)c(C(C)(C)C)c2)=C2C(=O)OC(C)(C)OC2=O)cc1
Thinking about recorded IC50 values, which is higher, 1 or 2 ? Mark your answer with the label of the selected entry.
1
